target: Cbl-B (Homo sapiens, UniProt Q13191); construct: MSD-Based Assay for Degradation of Cbl-B in THP-1 Cells; endogenous in cells; host or cells: THP-1 (title) / Jurkat (protocol text); assay: MSD-based assay for degradation of Cbl-B in THP-1 cells; assay type: cell-based; settings: Cbl-B degradation, Jurkat cells seeded (heading: THP-1 cells), 24 hours incubation, MSD readout
Sequence (Q13191 whole entry): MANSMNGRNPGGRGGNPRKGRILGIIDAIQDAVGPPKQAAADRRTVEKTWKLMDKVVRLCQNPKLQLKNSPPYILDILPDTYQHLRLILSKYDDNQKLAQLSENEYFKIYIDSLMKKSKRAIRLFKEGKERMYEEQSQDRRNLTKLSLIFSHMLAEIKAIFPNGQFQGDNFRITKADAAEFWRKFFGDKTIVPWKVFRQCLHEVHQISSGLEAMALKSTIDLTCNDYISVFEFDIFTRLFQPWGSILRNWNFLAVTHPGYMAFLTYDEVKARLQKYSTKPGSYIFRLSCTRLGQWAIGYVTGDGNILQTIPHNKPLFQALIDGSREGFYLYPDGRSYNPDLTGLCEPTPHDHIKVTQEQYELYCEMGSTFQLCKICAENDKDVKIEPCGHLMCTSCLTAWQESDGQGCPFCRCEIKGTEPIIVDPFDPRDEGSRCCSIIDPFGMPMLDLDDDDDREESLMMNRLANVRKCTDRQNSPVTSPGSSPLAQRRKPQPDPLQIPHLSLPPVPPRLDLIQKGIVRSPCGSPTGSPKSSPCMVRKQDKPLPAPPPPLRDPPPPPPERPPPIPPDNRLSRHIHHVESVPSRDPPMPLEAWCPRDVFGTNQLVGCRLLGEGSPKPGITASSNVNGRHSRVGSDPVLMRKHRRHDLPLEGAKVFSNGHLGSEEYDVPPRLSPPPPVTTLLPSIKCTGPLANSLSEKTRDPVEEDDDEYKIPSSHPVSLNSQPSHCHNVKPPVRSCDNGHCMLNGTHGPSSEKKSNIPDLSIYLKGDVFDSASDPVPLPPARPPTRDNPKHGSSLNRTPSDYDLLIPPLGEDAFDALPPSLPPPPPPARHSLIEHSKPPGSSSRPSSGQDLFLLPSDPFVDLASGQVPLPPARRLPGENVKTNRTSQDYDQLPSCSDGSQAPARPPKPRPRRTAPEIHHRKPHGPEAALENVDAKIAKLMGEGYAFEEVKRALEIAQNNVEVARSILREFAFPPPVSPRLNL
Quantity Kind: DC50

>  <Compound>
Cn1cnnc1CC1(c2cccc(-n3cc4c(C(F)(F)F)cc(CN5CCC[C@@H](OCCc6ccc(CN7CCN(c8ccc9c(c8)CN([C@@H]8CCC(=O)NC8=O)C9=O)CC7)cc6)C5)cn4c3=O)c2)COC1 (single isomer, unassigned)

>  <Result>
30 to 300 nM

$$$$

Incoming: Look up and report measured DC50 for this entry: CO[C@H]1C[C@](c2cccc(-n3cc4c(C(F)(F)F)cc(CN5CCC(OCCN6CCC(CN7CCN(c8ccc9c(c8)CN([C@@H]8CCC(=O)NC8=O)C9=O)CC7)CC6)CC5)cn4c3=O)c2)(c2nncn2C)C1
Outgoing: 300 to 1000 nM

Incoming: Look up and report measured DC50 for this entry: Cn1cnnc1[C@@H](c1cccc(-n2cc3c(C(F)(F)F)cc(CC4CCC[C@@H](OCCOCc5ccc(COCCNc6cccc7c6C(=O)N(C6CCC(=O)NC6=O)C7=O)cc5)C4)cn3c2=O)c1)C1CCC1 (stereo partly drawn)
Outgoing: 300 to 1000 nM

Incoming: Look up and report measured DC50 for this entry: CN(CCN(C)C(=O)c1ccc(N2CCN(c3ccc4c(c3)CN([C@@H]3CCC(=O)NC3=O)C4=O)CC2)cc1)Cc1cc(C(F)(F)F)c2cn(-c3cccc([C@H](c4nncn4C)C4CCC4)c3)c(=O)n2c1 (single isomer, unassigned)
Outgoing: 300 to 1000 nM

Incoming: Look up and report measured DC50 for this entry: Cn1cnnc1[C@@H](c1cccc(-n2cc3c(C(F)(F)F)cc(CN4CCC(N5CCN(c6ccc7c(c6)CN([C@@H]6CCC(=O)NC6=O)C7=O)CC5)CC4)cn3c2=O)c1)C1CCC1 (single isomer, unassigned)
Outgoing: 1000 to 10000 nM

Incoming: Look up and report measured DC50 for this entry: Cn1cnnc1CC1(c2cccc(-n3cc4c(C(F)(F)F)cc(CN5CC[C@H](OCCOCc6ccc(COCCNc7cccc8c7C(=O)N(C7CCC(=O)NC7=O)C8=O)cc6)C5)cn4c3=O)c2)COC1 (stereo partly drawn)
Outgoing: > 10000 nM

Incoming: Look up and report measured DC50 for this entry: CN(C(=O)c1ccc(CN2CCN(c3ccc4c(c3)CN([C@@H]3CCC(=O)NC3=O)C4=O)CC2)cc1)C1CCN(Cc2cc(C(F)(F)F)c3cn(-c4cccc(C5(Cc6nncn6C)COC5)c4)c(=O)n3c2)CC1 (single isomer, unassigned)
Outgoing: 300 to 1000 nM

Incoming: Look up and report measured DC50 for this entry: Cn1cnnc1[C@@H](c1cccc(-n2cc3c(C(F)(F)F)cc(CN4CCC(COCc5ccc(CN6CCN(c7ccc8c(c7)CN([C@H]7CCC(=O)NC7=O)C8=O)CC6)cc5)CC4)cn3c2=O)c1)C1CCC1
Outgoing: 30 to 300 nM

Incoming: Look up and report measured DC50 for this entry: Cn1cnnc1CC1(c2cccc(-n3cc4c(C(F)(F)F)cc(CN5CCC(OCCCN6CCN(c7ccc8c(c7)CN([C@H]7CCC(=O)NC7=O)C8=O)CC6)CC5)cn4c3=O)c2)COC1 (single isomer, unassigned)
Outgoing: > 10000 nM

###

Recorded Dmax by entry
Biological target: Cbl-B (Homo sapiens, UniProt Q13191)
Construct: MSD-Based Assay for Degradation of Cbl-B in THP-1 Cells; endogenous in cells; host or cells: THP-1 (title) / Jurkat (protocol text)
Experiment: MSD-based assay for degradation of Cbl-B in THP-1 cells
Type: cell-based
Details: Cbl-B degradation, Jurkat cells seeded (heading: THP-1 cells), 24 hours incubation, MSD readout; read-out: Dmax
Method: MSD-Based Assay for Degradation of Cbl-B in THP-1 Cells Assay plates were then shaken at 600 rpm for 5 minutes, followed by incubation for 24 hours in the 37° C. TC incubator. […] Cell debris was then spun down at maximum speed (about 3200 g) for 30 min and lysates frozen in the −80° C. fridge. […] Plates were again washed 3× with 150 ul/well of 1×TBST, followed by addition of 1×MSD reading buffer (MSD, R92TC-2), 150 ul/well, diluted from 4× with water. […]

Incoming: Look up and report measured Dmax for this entry: CN(CCOC1CCN(Cc2cc(C(F)(F)F)c3cn(-c4cccc([C@H](c5nncn5C)C5CCC5)c4)c(=O)n3c2)CC1)C(=O)c1ccc(N2CC3CC(C2)N3c2ccc3c(c2)CN([C@H]2CCC(=O)NC2=O)C3=O)cc1 (single isomer, unassigned) [Compound 90]
Outgoing: 30 to 50%

Incoming: Look up and report measured Dmax for this entry: Cn1cnnc1[C@@H](c1cccc(-n2cc3c(C(F)(F)F)cc(CN4CCC(OCc5cccc(C(=O)N6CCN(c7ccc8c(c7)CN([C@H]7CCC(=O)NC7=O)C8=O)CC6)c5)CC4)cn3c2=O)c1)C1CCC1 (single isomer, unassigned) [Compound 154]
Outgoing: 30 to 50%

Incoming: Look up and report measured Dmax for this entry: Cn1cnnc1CC1(c2cccc(-n3cc4c(C(F)(F)F)cc(CN5CCC(OCc6ccc(CN7CCN(c8ccc9c(c8)CN([C@H]8CCC(=O)NC8=O)C9=O)CC7)cc6)CC5)cn4c3=O)c2)COC1 (single isomer, unassigned) [Compound 94]
Outgoing: > 70%

Incoming: Look up and report measured Dmax for this entry: Cn1cnnc1CC1(c2cccc(-n3cc4c(C(F)(F)F)cc(CNCCOCCOCc5ccc(COCCNc6cccc7c6C(=O)N(C6CCC(=O)NC6=O)C7=O)cc5)cn4c3=O)c2)COC1 (centres unmarked) [Compound 4]
Outgoing: < 30%

Incoming: Look up and report measured Dmax for this entry: Cn1cnnc1[C@@H](c1cccc(-n2cc3c(C(F)(F)F)cc(CN4CCN(C(=O)Cc5ccc(C6CCN(c7ccc8c(c7)CN([C@@H]7CCC(=O)NC7=O)C8=O)CC6)cc5)CC4)cn3c2=O)c1)C1CCC1 (single isomer, unassigned) [Compound 201]
Outgoing: 30 to 50%

###

biological target: Cbl-B (Homo sapiens); construct: MSD-Based Assay for Degradation of Cbl-B in THP-1 Cells; endogenous in cells; host or cells: THP-1 (title) / Jurkat (protocol text); test: MSD-based assay for degradation of Cbl-B in THP-1 cells; type: cell-based; conditions: Cbl-B degradation, Jurkat cells seeded (heading: THP-1 cells), 24 hours incubation, MSD readout
Quantity Kind: DC50

>  <Compound>
Cn1cnnc1[C@@H](c1cccc(-n2cc3c(C(F)(F)F)cc(CN4CCC[C@H](OCCc5ccc(CN6CCN(c7ccc8c(c7)CN([C@@H]7CCC(=O)NC7=O)C8=O)CC6)cc5)C4)cn3c2=O)c1)C1CCC1 (single isomer, unassigned) [Compound 127]

>  <DC50>
> 10000 nM

$$$$
>  <Compound>
CN(CC1CCN(Cc2cc(C(F)(F)F)c3cn(-c4cccc(C5(Cc6nncn6C)COC5)c4)c(=O)n3c2)CC1)C(=O)c1ccc(C2CCN(c3ccc4c(c3)CN([C@@H]3CCC(=O)NC3=O)C4=O)CC2)cc1 [Compound 241]

>  <DC50>
< 30 nM

$$$$
>  <Compound>
Cn1cnnc1CC1(c2cccc(-n3cc4c(C(F)(F)F)cc(CN5CCC(OCc6ccc(C(=O)N7CCN(c8ccc9c(c8)CN([C@@H]8CCC(=O)NC8=O)C9=O)CC7)cc6)CC5)cn4c3=O)c2)COC1 (single isomer, unassigned) [Compound 243]

>  <DC50>
30 to 300 nM

$$$$
>  <Compound>
Cn1cnnc1[C@@H](c1cccc(-n2cc3c(C(F)(F)F)cc(CN4CCN(C(=O)Cc5ccc(C6CCN(c7ccc8c(c7)CN([C@@H]7CCC(=O)NC7=O)C8=O)CC6)cc5)CC4)cn3c2=O)c1)C1CCC1 (single isomer, unassigned) [Compound 201]

>  <DC50>
30 to 300 nM

$$$$
>  <Compound>
Cn1cnnc1[C@@H](c1cccc(-n2cc3c(C(F)(F)F)cc(CN4CCC[C@@H](OCc5ccc(CN6CCN(c7ccc8c(c7)CN(C7CCC(=O)NC7=O)C8=O)CC6)cc5)C4)cn3c2=O)c1)C1CCC1 (stereo partly drawn) [Compound 95]

>  <DC50>
30 to 300 nM

$$$$

Incoming: Look up and report measured DC50 for this entry: Cn1cnnc1[C@@H](c1cccc(-n2cc3c(C(F)(F)F)cc(CN4CCC(CC(=O)N5CCC(C6CCN(c7ccc8c(c7)CN([C@H]7CCC(=O)NC7=O)C8=O)CC6)CC5)CC4)cn3c2=O)c1)C1CCC1 (single isomer, unassigned) [Compound 178]
Outgoing: < 30 nM

Incoming: Look up and report measured DC50 for this entry: Cn1cnnc1CC1(c2cccc(-n3cc4c(C(F)(F)F)cc(CN5CCC(COCc6ccc(CN7CCN(c8ccc9c(c8)CN([C@H]8CCC(=O)NC8=O)C9=O)CC7)cc6)CC5)cn4c3=O)c2)COC1 [Compound 216]
Outgoing: < 30 nM

Incoming: Look up and report measured DC50 for this entry: Cn1cnnc1[C@@H](c1cccc(-n2cc3c(C(F)(F)F)cc(CN4CCC(CN5CCN(c6ccc7c(c6)CN([C@H]6CCC(=O)NC6=O)C7=O)CC5)CC4)cn3c2=O)c1)C1CCC1 (single isomer, unassigned) [Compound 86]
Outgoing: 1000 to 10000 nM

Incoming: Look up and report measured DC50 for this entry: Cn1cnnc1[C@@H](c1cccc(-n2cc3c(C(F)(F)F)cc(CN4CCC(CN5CCC(CN6CCN(c7ccc8c(c7)CN(C7CCC(=O)NC7=O)C8=O)CC6)CC5)CC4)cn3c2=O)c1)C1CCC1 (stereo partly drawn) [Compound 38]
Outgoing: 1000 to 10000 nM
